Reference source: patent US4554289A

system: cellular immunity (delayed type hypersensitivity to sheep erythrocytes); experiment: Delayed type hypersensitivity (DTH) to sheep erythrocytes, hind paw edema (cellular immunity); format: in vivo, CDF1 strain female mice; conditions: 50 μg/kg intraperitoneally; control = 100
Provide the reported Potentiating Ratio to Control of each item.
Give bare numbers, in %.

Below, 3 compounds whose answers are already recorded.
[[record]]
compound = "COc1ccc2cc1Oc1ccc(cc1)CC(CO)NC(=O)C(C(O)CO)NC(=O)C(N)C2 (stereo not drawn)"
assayed_system = "cellular immunity (delayed type hypersensitivity to sheep erythrocytes)"
obs_value = 111

[[record]]
compound = "NC(=O)C(O)C1NC(=O)C(N)Cc2ccc(O)c(c2)Oc2ccc(cc2)CC(C(=O)O)NC1=O (stereo not drawn)"
assayed_system = "cellular immunity (delayed type hypersensitivity to sheep erythrocytes)"
obs_value = 147

[[record]]
compound = "COc1ccc2cc1Oc1ccc(cc1)CC(C(=O)O)NC(=O)C(C(O)C(=O)O)NC(=O)C(N)C2 (stereo not drawn)"
assayed_system = "cellular immunity (delayed type hypersensitivity to sheep erythrocytes)"
obs_value = 121


Items follow; give Potentiating Ratio to Control for each.
1. COc1ccc2cc1Oc1ccc(cc1)CC(C(=O)O)NC(=O)C(C(O)C(N)=O)NC(=O)C(N)C2 (stereo not drawn)
2. COc1ccc2cc1Oc1ccc(cc1)CC(C(N)=O)NC(=O)C(C(O)C(N)=O)NC(=O)C(N)C2 (stereo not drawn)
3. NC1Cc2ccc(O)c(c2)Oc2ccc(cc2)CC(C(=O)O)NC(=O)C(C(O)C(=O)O)NC1=O (stereo not drawn)

## Result
[163, 120, 114]
